Tested on: 485176-168-R4-J1-PDC complex spheroid growth;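 also: spheroids exposed to compounds for seven days before readout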
Test protocol: Anticancer human tumor 485176-168-R4-J1-PDC patient-derived pancreatic adenocarcinoma cell line growth inhibition [RAS]
Test context: second compound 1 µM; first compound 1 µM; hits give low values
Please use met for viability, T/C under 60% and not met for everything else, ties included.

In: Answer whether the compound Nc1ccn(C2OC(CO)C(O)C2(F)F)c(=O)n1 (configuration not stated) + C=CC(=O)N1CCN(c2nc(OCC3CCCN3C)nc3c(F)c(-c4nc(N)cc(C)c4C(F)(F)F)c(Cl)cc23)C(C)C1 has viability, T/C strictly less than 60%
Out: met

In: Another compound to look at: CC1(O)CCCC1n1c(=O)c(C(F)F)cc2cnc(NC3CCN(S(C)(=O)=O)CC3)nc21 (configuration not stated) + C#Cc1c(F)ccc2cc(O)cc(-c3ncc4c(N5CC6CCC(C5)N6)nc(OCC56CCCN5CC(F)C6)nc4c3F)c12
Out: not met

In: Same for C[C@@H](NC(=O)c1ncnc(N)c1Cl)c1ncc(C(=O)Nc2cc(C(F)(F)F)c(Cl)cn2)s1 + C=CC(=O)N1CCN(c2nc(OCC3CCCN3C)nc3c(F)c(-c4nc(N)cc(C)c4C(F)(F)F)c(Cl)cc23)C(C)C1
Out: not met
